tested_system: Glucagon-like peptide 1 receptor (Homo sapiens)
Sequence (P43220 whole entry): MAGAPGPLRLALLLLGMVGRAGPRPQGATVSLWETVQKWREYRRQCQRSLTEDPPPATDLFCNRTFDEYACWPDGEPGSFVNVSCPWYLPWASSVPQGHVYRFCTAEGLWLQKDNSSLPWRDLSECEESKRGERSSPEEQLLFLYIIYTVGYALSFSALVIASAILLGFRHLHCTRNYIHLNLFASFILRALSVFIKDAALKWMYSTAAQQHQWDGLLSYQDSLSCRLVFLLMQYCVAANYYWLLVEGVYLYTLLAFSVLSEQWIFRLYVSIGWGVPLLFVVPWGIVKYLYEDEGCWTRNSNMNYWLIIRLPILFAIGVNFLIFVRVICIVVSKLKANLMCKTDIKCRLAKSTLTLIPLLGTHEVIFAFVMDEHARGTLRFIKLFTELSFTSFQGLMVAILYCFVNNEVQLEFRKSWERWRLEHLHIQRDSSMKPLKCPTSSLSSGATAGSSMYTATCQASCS
measurement_notes: Agonist activity at human GLP-1R expressed in CHO-K1 cells assessed as increase in cAMP level incubated for 30 mins
Where a SMILES comes first, the peptide text is derived from it. Bridges are numbered along the chain shown (N, C = ends). [ ]: non-standard residue; d: D form. ξ: configuration not given here. Bip(2'-Et-4'-OMe) = CCc1cc(OC)ccc1-c1ccc(C[C@H](N)C(=O)O)cc1; ξαMePhe(2-F) = CC(N)(Cc1ccccc1F)C(=O)O; hhPhe = N[C@@H](CCCc1ccccc1)C(=O)O; Aib = CC(C)(N)C(=O)O

{"compound": "CCc1cc(OC)ccc1-c1ccc(C[C@@H]2NC(=O)[C@H](CC(=O)O)NC(=O)[C@H](CO)NC(=O)[C@@H]3CSSC[C@@H](C(=O)O)NC(=O)[C@H](CSSC[C@H](NC(=O)CNC(=O)[C@H](CCC(=O)O)NC(=O)C(C)(C)NC(=O)[C@@H](N)Cc4cnc[nH]4)C(=O)NC(C)(Cc4ccccc4F)C(=O)N3)NC(=O)[C@H](CC(C)C)NC(=O)[C@H](CCCc3ccccc3)NC2=O)cc1 (stereo partly specified) (H-H[Aib]EGC[ξαMePhe(2-F)]CSD[Bip(2'-Et-4'-OMe)][hhPhe]LCC-OH; disulfide 5-13, 7-14)", "EC50 [µM]": 5}
